test system: Tetranychus cinnabarinus; experiment: Insecticidal activity against Tetranychus cinnabarinus (carmine spider mite) infested on Sieva bean plants leaves exposed to compound formulation at 200 mg/kg assessed as insect mortality measured 2 days post compound treatment; type: functional; settings: 48 h
Please go through the items and note down their mortality at 200 mg/kg.
All answers are understood in %, so give the number only.

Tell me mortality at 200 mg/kg of CCC(C)OC(=O)C(=O)OCn1c(-c2ccc(Cl)cc2)c(C#N)c(Br)c1C(F)(F)F (stereo not given) when tested on Tetranychus cinnabarinus.
100

Tell me mortality at 200 mg/kg of `COCCOC(=O)C(=O)OCn1c(-c2ccc(Cl)cc2)c(C#N)c(Br)c1C(F)(F)F` when tested on Tetranychus cinnabarinus.
100

Tell me mortality at 200 mg/kg of `N#Cc1c(Br)c(C(F)(F)F)n(COC(=O)C(=O)OCC2CCCC2)c1-c1ccc(Cl)cc1` when tested on Tetranychus cinnabarinus.
100

Tell me mortality at 200 mg/kg of `N#Cc1c(Br)c(C(F)(F)F)n(COC(=O)C(=O)Nc2ccccc2Cl)c1-c1ccc(Cl)cc1` when tested on Tetranychus cinnabarinus.
71

Tell me mortality at 200 mg/kg of `N#Cc1c(Br)c(C(F)(F)F)n(COC(=O)C(=O)Nc2ccccc2)c1-c1ccc(Cl)cc1` when tested on Tetranychus cinnabarinus.
99

The reported measurements were obtained from ChEMBL document CHEMBL3046536.
